# target-of-assay: Nuclear receptor ROR-gamma (Homo sapiens)
# experiment-summary: RORG inhibitors in reporter cells, late-stage follow-up, selectivity assay for RORA inverse agonist project, cell-based, luminescence, single concentration, HEK293T GAL4-RORg (AID 463147)
# applied-conditions: HEK293T GAL4-RORg LBD luciferase reporter, 18-24 h; at 10 µM; stronger effect = lower value
observation-type: fold change

# item-smiles, fold change
data = [
    ("O=C(Nc1ccc(C(O)(C(F)(F)F)C(F)(F)F)cc1)c1c(F)cccc1F", 1.06),
    ("O=C(Nc1ccc(C(O)(C(F)(F)F)C(F)(F)F)cc1)c1ccc(F)cc1Cl", 0.974),
    ("O=C(Nc1ccc(C(O)(C(F)(F)F)C(F)(F)F)cc1)c1ccc(Cl)cc1", 0.873),
    ("O=C(Nc1ccc(C(O)(C(F)(F)F)C(F)(F)F)cc1)c1ccc(F)cc1F", 1.23),
    ("O=S(=O)(Nc1ccc(C(O)(C(F)(F)F)C(F)(F)F)cc1)c1cccs1", 0.91),
    ("O=C(Nc1ccc(C(O)(C(F)(F)F)C(F)(F)F)cc1)c1ccccc1C(F)(F)F", 0.897),
]
